Recorded measurements of growth, one per entry
System: A549/ATCC NSCLC
experiment: NCI-60 one-dose screen, 48 h (100 = growth as untreated, 0 = no growth, -100 = all killed)
applied.conditions: 10 µM unless noted
The panel holds about 83,000 compounds, 20% with a hit somewhere; the sample as a whole holds those more often.
Enter your answer as a number in %; do not include the unit.

Illustrative cases are given below, each with its answer.
CC/C=C\C[C@H](O)C/C=C1/C(=O)C=C[C@@H]1C/C=C\CCCCO: 5.55
Cc1cc(C(=O)c2ccccc2)c(C)c2c1[nH]c1ccc(Cl)cc12: 19.6
c1ccc(-c2nc([P+](c3ccccc3)(c3ccccc3)c3ccccc3)c(N3CCOCC3)o2)cc1: 15.4
C[C@@H]1N=C(c2ccc3ccccc3n2)Nc2nc3ccccn3c2C1=O: 105

Let us move to another entry and its growth.
Assign growth to the following record: `Cn1c(-c2c(N)n(Cc3ccc(C(F)(F)F)cc3)c3nc(C#N)c(C#N)nc23)nc2ccccc21` 12

Values from PubChem BioAssay (NCI)
